SUBJECT OF TEST: MtrA (MtrASCO) (Streptomyces coelicolor M145) (UniProt Q9KYW8)
Sequence: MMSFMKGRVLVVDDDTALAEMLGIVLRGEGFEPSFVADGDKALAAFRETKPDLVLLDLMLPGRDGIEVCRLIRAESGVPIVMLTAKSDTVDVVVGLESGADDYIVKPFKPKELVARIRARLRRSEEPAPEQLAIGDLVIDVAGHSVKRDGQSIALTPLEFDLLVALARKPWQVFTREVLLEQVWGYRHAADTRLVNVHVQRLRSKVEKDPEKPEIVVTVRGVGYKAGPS
PROTOCOL TEXT: EMSA
TEST SETTINGS: EMSA: 20 mM Tris-HCl pH 8.0, 2 mM EDTA, 20 mM KCl, 0.5 mM DTT, 4% Ficoll-400, 2 ug poly(dI-dC), 50 fmol probe, 20 ul, room temperature 15 min; footprinting …

POLYMER SEQUENCE: CACCAGCCGTCGTTCATCGTTCCGGGCAGGGGGTCCGCACGTCCGGAGGAGGTTCCGTCACTTTGTCGACACGGCCACTTTCGGCCTCGTATCGACAAAGTGCGGAACCGTTCGATCTTCGAATGATCGACAGTGTGTCCGAATTGCTCGGATTGTTACTCACCAGATCGTGATCATTCTCTAAAGGCGGACGCGTTCGGTGCCGAAGACGACTGTGACCTTGAAAGCACGGTTCGTCCCGGCTTAAACCCCATGAGCCGGCCCCGTCCCCGCACCCCAGGAGGCCTGGTGTC (double strand) [whiI upstream PCR probe (293 bp)]
binding: binds

POLYMER SEQUENCE: CGTCAGGGATGCGTCAGGAGTGCGTCAGGGGTCCGAGAGGGGTCCGACCGAGGTGCGCCGGGGCCTTCATGCATGCCCCGTACGGCCCGTCGGGGCCCGCCACGGCGCAGGCTTCACCCGCTTAACCCTCCTGGTTCGCGGTCCCCGCGGGCACGGCCCACGATCGTGCTTACGCGACCGTCGCACCCCGCCGGCCTGGCGGGCGCCGCCGACGATCGCCCCAGTCCACGAGGATGACCGGAGAAGAGGTGGGCCGGATGACGGTCT (double strand) [whiE-ORF1 upstream PCR probe (267 bp)]
binding: no binding

POLYMER SEQUENCE: GTCGTCCCCGATGGCAGGTGTAGGCCCCGCGGGTGCGTTCAGTGCCGTCACGGTTGATGCGGCAGCGGCCCGGCGTCGCGAACTTCCTTGACGTCGTGTGCCGTCGGCCGGCCGTCGCCGGCCGTGAGCCAGGGTTCTCCCGGGGCCGTGCTGCCCCTCCGTCTTTGTTCCCCTCGCGCGCTGCGAAAGACGTACGCCGTGCGAAGGCCGTCGGCTCCCGCACTCCCGACGACCTCCAACCTGTGAAATGGACGAATCATGACGA (double strand) [bldKA upstream PCR probe (265 bp)]
binding: no binding

POLYMER SEQUENCE: GGACATATGGCTCCCCGGACAAGGTGTCGACGCGGCAGGCTGTGTTGTCGGCCGCGCGGCTGGTAACTCACTGTGAGGTTACGCAGCGTTACTCTGCTGCGTCAAGCCGAATGGTCCGCACCGACTCTTCCGTGGTATTCGCCATCCATTACTCCGTGCGGGTGATCGATGTGGGGCAGAGGAGTGACGGGGGAGTGTCAGGGGGGTCATCGGAGAGGTTCTGTGAGCCTGCTACCGTAGGTGGCGCATATCCGACGTCCTTTAAGGTCCGTCCCGTGAGGC (double strand) [bldD upstream PCR probe (282 bp)]
binding: binds

Cited source for all entries: paper PMC5650626
